src = patent US20090162358A1

target: T1, N-terminal biotinylated β-amyloid (24-34) peptide; assay: FMAT bead immunoassay, culture supernatant
T1 peptide: Biotin-VGSNKGAIIGL
Ends that are not written are not given here. * marks the point of attachment. Biotin = O=C1N[C@H]2[C@H](CS[C@H]2CCCCC(=O)*)N1
outcome_measure: binding result

Consider the reported binding result for these binders:
{"binder": "16D4 mouse monoclonal antibody (antibody, V domains shown, Mouse hybridoma antibody) VH: EVQLQQSGAELVKPGASVKLSCTASGFNIKDYYMHWLKQLTEQGLEWIGRIDPENGETQYAPKFQGKASLTADTSSNTAYLHLSSLTSEDTAVYYCVSSGYWGQGTTLTVSS VL: DIVMTQAAFSNPVTLGTSASISCRSSKSLLHSNGITYLYWYLQKPGQSPQLLIYQMSNLASGVPDRFSSSGSGTDFTLRISRVEAEDVGVYYCAQNLELWTFGGGTKLEIK", "binding result": "binds"}
{"binder": "6F6 murine monoclonal antibody (antibody, mouse IgG2a, V domains shown, also called 6F6 parental monoclonal antibody; mouse 6F6 monoclonal antibody) VH: EVQLQQSGAELVEPGASVKLSCTGSGFNIKVYYVHWLKQLTEQGLEWIGRIDPENGETIYTPKFQDKATLTVDTSSNTAYLQLSSLTSEDAAVYYCVSSGYWGQGTTLTVSS VL: DIVMTQSAFSNPVTLGTSASISCRSSKSLLHRNGITYLYWYLQKPGQPPQLLIYQMSNLASGVPDRFTSSGSGTDFTLKISRVEAEDVGVYYCAQNLELWTFGGGTKLEIK", "binding result": "binds"}
{"binder": "4D4 mouse monoclonal antibody (antibody, V domains shown, Mouse hybridoma antibody) VH: EVQLQQSGAELVEPGASVKLSCTGSGFNIKVYYVHWLKQLTEQGLEWIGRIDPENGETLYTPKFQGKATLTVDTSSNTAYLQLNSLTSEDTAVYYCVSSGYWGQGTSLTVSS VL: DIVMTQSAFSNPVTLGTSASISCRSSKSLLHRNGITYLYWYLQKPGQSPQLLIYQMSNLASGVPDRFTSSGSGTDFTLKISRVEAEDVGVYYCAQNLELWTFGGGTKLEIK", "binding result": "binds"}
{"binder": "2C1 mouse monoclonal antibody (antibody, V domains shown, Mouse hybridoma antibody) VH: EVQLQQSGAELVKPGASVKLSCTGSGFNIKVYYVHWLKQLTEQGLEWIGRIDPENGETIYAPKFQDKATLTVDTSSNTAYLQLSSLTSEDTAVYYCVSSGYWGQGTTLTVSS VL: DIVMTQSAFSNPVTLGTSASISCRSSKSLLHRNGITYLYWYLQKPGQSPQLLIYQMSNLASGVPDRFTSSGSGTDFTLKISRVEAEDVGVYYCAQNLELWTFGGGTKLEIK", "binding result": "binds"}

Now for the binder whose binding result we want.
Query string: Report binding result for 5C9 mouse monoclonal antibody (antibody, V domains shown, Mouse hybridoma antibody) VH: EVQLQQSGAEFVRPGASVKLSCTASGFNIKTYYIHWLKQRTDQGLEWIGRIDPEDGETKFGPKFRGKATLTADTSSNTASLQLSSLTSEDTGVYYCVTSGYWGQGTTLSVSS VL: DIVMTQAAFSNPVTLGTSASISCRSSKSLLHSNGITYLYWYLQKPGQSPQLLIYQMSNLASGVPDRFSSSGSGTDFTLRISRVEAEDVGVYYCAQNLELWTFGGGTKLEIK
Result string: binds
